# measured target: T1, human Nectin-4 (human, UniProt Q96NY8 32-349)
# T1 construct: a Gly32-Ser349 FLAG construct is described only under the SPR assay; also called PVRL4
# T1 sequence (looked up): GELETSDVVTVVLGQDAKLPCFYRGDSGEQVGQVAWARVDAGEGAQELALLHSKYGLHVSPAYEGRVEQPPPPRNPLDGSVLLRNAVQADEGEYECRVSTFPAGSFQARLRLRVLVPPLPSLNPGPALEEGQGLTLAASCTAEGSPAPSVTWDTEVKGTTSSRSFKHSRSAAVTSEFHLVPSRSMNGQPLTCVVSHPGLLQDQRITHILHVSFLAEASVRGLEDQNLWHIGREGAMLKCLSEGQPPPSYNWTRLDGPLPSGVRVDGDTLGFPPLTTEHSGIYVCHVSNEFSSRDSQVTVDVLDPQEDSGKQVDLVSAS
# test: FP competition, tracer SEQ ID NO 217
# Procedure: Peptides were diluted to an appropriate concentration in assay buffer as described in the direct binding assay with a maximum of 5% DMSO, then serially diluted 1 in 2. […] Measurements were conducted as for the direct binding assay, however the gain was determined prior to the first measurement. Data analysis was in Systat Sigmaplot version 12.0 where the mP values were fit to a user defined cubic equation to generate a Ki value: […]
*1 amine or outer side, *2 acyl side, *3 side chain or, on linkers, in order; H or OH if unused. Bridges are numbered along the chain shown (N, C = ends). Where no end group is shown, it is not given here. [ ]: non-standard residue; d: D form. TATA = O=C(CC[*:1])N1CN(C(=O)CC[*:2])CN(C(=O)CC[*:3])C1; 1Nal = N[C@@H](Cc1cccc2ccccc12)C(=O)O; Hyp = O=C(O)[C@@H]1C[C@@H](O)CN1; dCya = N[C@H](CS(=O)(=O)O)C(=O)O; hArg = N=C(N)NCCCC[C@H](N)C(=O)O; Aib = CC(C)(N)C(=O)O
quantity name: pKi
The scale used: pKi is minus the common logarithm of the concentration in molar units.

Past entries and their recorded results:
• ACPFGCM[hArg]NWSWPIWCTNK (linker 2-6-16 via TATA) [BCY7265] = 7.42
• Ac-CP[1Nal][dCya]CM[hArg]DWSTP[Hyp]WC (linker 1-5-15 via TATA) [BCY8163] = 8.52
• Ac-C[Aib]F[dD]CM[hArg]NWSTPIWC (linker 1-5-15 via TATA) [BCY8041] = 7.41
• HDSCPFGCMK(Ac)SWSWPIWCA (linker 4-8-18 via TATA) [BCY7273] = 7.08
• ACPFGCXKNWSWPIWCTNK (core CPFGC(Nle)KNWSWPIWC (printed (NIe)); TATA on 3 Cys, also called 80-09-02-T01-N041) [BCY7372] = 7.14
• DDWCAPLDDYWCGRICA (linker 4-12-16 via TATA, also called 80-10-11-T01) [BCY433] = 7.16
• Ac-CPF[dD]CM[hArg]NWSTPKWC (linker 1-5-15 via TATA) [BCY8085] = 7.82

Form: binder = Ac-CP[1Nal][dR]CM[hArg]DWDTP[Hyp]WC (linker 1-5-15 via TATA) [BCY8185] ; pKi = 7.58
